Quick reference: percent inhibition of viability of the listed items.
Tested on: YT (IL-2 2.5 ng/mL)
EXPERIMENT SUMMARY: percent inhibition of viability; higher = more inhibition
REPORTED CONDITIONS: 72 h; 2.5 nM
PARAMETER MEASURED: percent inhibition of viability (%)

{"columns": ["MOLECULE", "MEASUREMENT TARGET", "UNIT STRING", "RESULT VALUE"],
 "data": [
  ["Nc1nc(NC2CC2)cc(-c2cccc(Cl)c2Cl)n1 [TH588] (max concentration tested 25000 nM)", "YT (IL-2 2.5 ng/mL)", "%", -5.04],
  ["O=C(c1cccc(Cl)c1F)N1CCN(Cc2cccc(Nc3nccs3)n2)CC1 [MK-8745] (max concentration tested 2500 nM)", "YT (IL-2 2.5 ng/mL)", "%", -1.63],
  ["NC(=O)Nc1sc(-c2ccc(F)cc2)cc1C(N)=O [TPCA-1] (max concentration tested 25000 nM)", "YT (IL-2 2.5 ng/mL)", "%", -3.91],
  ["COc1cc(C(=O)NC2CCN(C)CC2)c(F)cc1Nc1ncc2c(n1)N(C1CCCC1)CC(F)(F)C(=O)N2C [TAK-960] (max concentration tested 2500 nM)", "YT (IL-2 2.5 ng/mL)", "%", 0.71],
  ["CCNC(=O)Nc1ccc(-c2nc3c(c(N4CCOC[C@@H]4C)n2)CCN(C2COC2)C3)cc1 [RG-7603] (max concentration tested 2500 nM)", "YT (IL-2 2.5 ng/mL)", "%", -2.47]
]}

###

Test system: normal NK cells expanded with K562-aAPC
EXPERIMENT SUMMARY: percent inhibition of viability; higher = more inhibition
REPORTED CONDITIONS: 72 h; IL-2 2.5 ng/mL; 1000 nM
Quick reference: percent inhibition of viability of the listed items.
PARAMETER MEASURED: percent inhibition of viability (%)

{"columns": ["MOLECULE", "MEASUREMENT TARGET", "UNIT STRING", "RESULT VALUE"],
 "data": [
  ["CC(C)CC(=O)Nc1n[nH]c2c1CN(C(=O)C1CCN(C)CC1)C2(C)C (max concentration tested 10000 nM)", "normal NK cells expanded with K562-aAPC", "%", 24.6],
  ["O=C(O)c1ccc2c(c1)nc(Nc1cccc(Cl)c1)c1ccncc12 [Silmitasertib] (max concentration tested 10000 nM)", "normal NK cells expanded with K562-aAPC", "%", 24.6],
  ["Cc1cc(Nc2cc(N3CCN(C)CC3)nc(Sc3ccc(NC(=O)C4CC4)cc3)n2)n[nH]1 [Tozasertib] (max concentration tested 10000 nM)", "normal NK cells expanded with K562-aAPC", "%", 35.3],
  ["Cn1cc(CNCC2CCN(c3ncc(C(=O)NO)cn3)CC2)c2ccccc21 [Quisinostat] (max concentration tested 1000 nM)", "normal NK cells expanded with K562-aAPC", "%", 99.5]
]}

###

Test system: IMC-1 (IL-2 20 ng/mL)
EXPERIMENT SUMMARY: percent inhibition of viability; higher = more inhibition
REPORTED CONDITIONS: 72 h; 1000 nM
Quick reference: percent inhibition of viability of the listed items.

{"columns": ["COMPOUND", "UNIT STRING", "percent inhibition of viability"],
 "data": [
  ["COc1cc2c(Oc3ccc(NC(=O)C4(C(=O)Nc5ccc(F)cc5)CC4)cc3F)ccnc2cc1OCCCN1CCOCC1 [Foretinib] (max concentration tested 1000 nM)", "%", 27.1],
  ["NC(=O)c1cccc2cn(-c3ccc([C@@H]4CCCNC4)cc3)nc12 [Niraparib] (max concentration tested 10000 nM)", "%", 17.8],
  ["CN(C[C@@H]1COCCO1)S(=O)(=O)Nc1ccc2ccc3ncc(-c4cnn(C)c4)cc3c(=O)c2c1 [MK-2461] (max concentration tested 10000 nM)", "%", -5.3],
  ["C[C@@H]1COC(Nc2ccc3ncnc(Nc4ccc(OCc5nccs5)c(Cl)c4)c3c2)=N1 [Varlitinib] (max concentration tested 10000 nM)", "%", 14.6],
  ["COc1cc2ncnc(Nc3ccc(F)c(Cl)c3)c2cc1NC(=O)/C=C/CN1CCCCC1 [Dacomitinib] (max concentration tested 1000 nM)", "%", 13.4],
  ["CO[C@@]12[C@H](COC(N)=O)C3=C(C(=O)C(C)=C(N)C3=O)N1C[C@@H]1N[C@@H]12 [Mitomycin C] (max concentration tested 10000 nM)", "%", 5.66]
]}

###

Test system: normal NK cells expanded with K562-aAPC
EXPERIMENT SUMMARY: percent inhibition of viability; higher = more inhibition
REPORTED CONDITIONS: 72 h; IL-2 2.5 ng/mL; 100000 nM
Quick reference: percent inhibition of viability of the listed items.
PARAMETER MEASURED: percent inhibition of viability (%)

{"columns": ["COMPOUND", "RESULT VALUE"],
 "data": [
  ["CCN(CC)CCCC(C)Nc1ccnc2cc(Cl)ccc12 (centres undefined) [Chloroquine] (max concentration tested 100000 nM)", 101],
  ["N.N.[Cl][Pt][Cl] [Cisplatin] (max concentration tested 100000 nM)", 99.8],
  ["Nc1cccc2c1CN(C1CCC(=O)NC1=O)C2=O (centres undefined) [Lenalidomide] (max concentration tested 100000 nM)", 16.5],
  ["Cn1nnc2c(C(N)=O)ncn2c1=O [Temozolomide] (max concentration tested 100000 nM)", 10.9]
]}

###

Quick reference: percent inhibition of viability of the listed items.
Tested on: YT (IL-2 2.5 ng/mL)
EXPERIMENT SUMMARY: percent inhibition of viability; higher = more inhibition
REPORTED CONDITIONS: 72 h; 100 nM
PARAMETER MEASURED: percent inhibition of viability (%)

{"columns": ["COMPOUND", "MEASUREMENT TARGET", "PARAMETER MEASURED", "RESULT VALUE"],
 "data": [
  ["Cc1cc(OCc2nnc(SC3CCCC3)n2-c2cccnc2)ccc1-c1ccc(S(C)(=O)=O)cc1 [NMS-873] (max concentration tested 10000 nM)", "YT (IL-2 2.5 ng/mL)", "percent inhibition of viability", 83.1],
  ["Cc1cn(-c2cc(NC(=O)c3ccc(C)c(Nc4nccc(-c5cccnc5)n4)c3)cc(C(F)(F)F)c2)cn1 [Nilotinib] (max concentration tested 10000 nM)", "YT (IL-2 2.5 ng/mL)", "percent inhibition of viability", 8.97],
  ["Cc1c(Cn2c(C)nc3c(C(=O)O)cc(N4CCOCC4)cc32)cccc1C(F)(F)F (max concentration tested 10000 nM)", "YT (IL-2 2.5 ng/mL)", "percent inhibition of viability", 9.12],
  ["COc1ccc(-c2nc(N3CCOCC3)c3sc(CN(C)c4ncc(C(=O)NO)cn4)cc3n2)cn1 [CUDC-907] (max concentration tested 10000 nM)", "YT (IL-2 2.5 ng/mL)", "percent inhibition of viability", 103],
  ["CN1CCc2c(c3ccccc3n2Cc2ccc(C(=O)NO)cc2)C1 [Tubastatin A] (max concentration tested 10000 nM)", "YT (IL-2 2.5 ng/mL)", "percent inhibition of viability", -0.96],
  ["C[C@]12C=CC(=O)C=C1CC[C@@H]1[C@@H]2C(=O)C[C@@]2(C)[C@H]1CC[C@]2(O)C(=O)CO [Prednisone] (max concentration tested 10000 nM)", "YT (IL-2 2.5 ng/mL)", "percent inhibition of viability", 29.5]
]}

###

Test system: normal NK cells expanded with K562-aAPC
EXPERIMENT SUMMARY: percent inhibition of viability; higher = more inhibition
REPORTED CONDITIONS: 72 h; IL-2 2.5 ng/mL; 0.1 nM
Quick reference: percent inhibition of viability of the listed items.

{"columns": ["MOLECULE", "percent inhibition of viability / %"],
 "data": [
  ["O=C(NOC[C@H](O)CO)c1ccc(F)c(F)c1Nc1ccc(I)cc1F (max concentration tested 1000 nM)", -1.9],
  ["O=C(Nc1c[nH]nc1-c1nc2ccc(CN3CCOCC3)cc2[nH]1)NC1CC1 [AT9283] (max concentration tested 1000 nM)", 0.7],
  ["COc1cc2nccc(Oc3ccc(NC(=O)C4(C(=O)Nc5ccc(F)cc5)CC4)cc3)c2cc1OC [Cabozantinib] (max concentration tested 1000 nM)", -0.51],
  ["CO[C@H]1/C=C\\C=C(/C)C(=O)NC2=CC(=O)C(NCCN(C)C)=C(C[C@@H](C)C[C@H](OC)[C@H](O)[C@@H](C)/C=C(\\C)[C@@H]1OC(N)=O)C2=O [Alvespimycin] (max concentration tested 1000 nM)", -6.1],
  ["CNC(=O)c1cc(Oc2ccc(NC(=O)Nc3ccc(Cl)c(C(F)(F)F)c3)cc2)ccn1 [Sorafenib] (max concentration tested 1000 nM)", -0.62],
  ["COc1cc2ncnc(Nc3ccc(F)c(Cl)c3)c2cc1NC(=O)/C=C/CN1CCCCC1 [Dacomitinib] (max concentration tested 1000 nM)", 4.92],
  ["Cc1nc(Nc2ncc(C(=O)Nc3c(C)cccc3Cl)s2)cc(N2CCN(CCO)CC2)n1 [Dasatinib] (max concentration tested 1000 nM)", -0.95],
  ["C/C(=C\\c1csc(C)n1)[C@@H]1C[C@@H]2O[C@]2(C)CCC[C@H](C)[C@H](O)[C@@H](C)C(=O)C(C)(C)[C@@H](O)CC(=O)O1 [Patupilone] (max concentration tested 1000 nM)", -5.25],
  ["CC(C)C[C@H](NC(=O)[C@H](CCc1ccccc1)NC(=O)CN1CCOCC1)C(=O)N[C@@H](Cc1ccccc1)C(=O)N[C@@H](CC(C)C)C(=O)[C@@]1(C)CO1 [Carfilzomib] (max concentration tested 1000 nM)", -5.98]
]}
